Tested on: biotinyl-Val-oxazolone
assayText: self-aminoacylation, catalytic enhancement (BVO) (fold over background); higher = more active; k-Seq, kA / k0A0; sequences stand for … in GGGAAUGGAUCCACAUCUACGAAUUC…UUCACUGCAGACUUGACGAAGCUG
This sample holds only a part of the variants without activity.
propertyName: self-aminoacylation
Answers are plain numbers.

[
  {
    "sequenceCode": "AUUAACCUGGUCAUCGUGUGA [Fam2.1 aminoacylation ribozyme variant]",
    "self-aminoacylation": 1.82
  },
  {
    "sequenceCode": "AAGUUUGCUAGUAGUAGCAAG [Fam3.1 aminoacylation ribozyme variant]",
    "self-aminoacylation": 1.18
  },
  {
    "sequenceCode": "AACUUUACUAAUAGUCGCAAG [Fam3.1 aminoacylation ribozyme variant]",
    "self-aminoacylation": 1.86
  },
  {
    "sequenceCode": "AUUCACCUAGGUCUGCGGGUG [Fam2.2 aminoacylation ribozyme variant]",
    "self-aminoacylation": 2.58
  },
  {
    "sequenceCode": "CCACACUUCAGGCAAUCGGUC [Fam1B.1 aminoacylation ribozyme variant]",
    "self-aminoacylation": 1.27
  }
]

Give self-aminoacylation for all sequences that follow.
1. AUUACCCUGGUGAUCAAGUGA [Fam2.1 aminoacylation ribozyme variant]
2. CUAGUUCAAACAGUCGGUCUG [Fam1A.1 aminoacylation ribozyme variant]
3. AAGUUUGCUAUUAGGCGCAAG [Fam3.1 aminoacylation ribozyme variant]
4. CUAUUUCAUACAAUCGGUCUG [Fam1A.1 aminoacylation ribozyme variant]

Out:
[1.92, 0.945, 0.681, 0.801]

Source listed as the supplement of paper PMC9233669.
